- measurement_target: human α1A‐adrenoceptor (Homo sapiens, UniProt P35348)
- Construct: expressed in transfected cells; host or cells: CHO-K1
- Sequence (P35348 1-466): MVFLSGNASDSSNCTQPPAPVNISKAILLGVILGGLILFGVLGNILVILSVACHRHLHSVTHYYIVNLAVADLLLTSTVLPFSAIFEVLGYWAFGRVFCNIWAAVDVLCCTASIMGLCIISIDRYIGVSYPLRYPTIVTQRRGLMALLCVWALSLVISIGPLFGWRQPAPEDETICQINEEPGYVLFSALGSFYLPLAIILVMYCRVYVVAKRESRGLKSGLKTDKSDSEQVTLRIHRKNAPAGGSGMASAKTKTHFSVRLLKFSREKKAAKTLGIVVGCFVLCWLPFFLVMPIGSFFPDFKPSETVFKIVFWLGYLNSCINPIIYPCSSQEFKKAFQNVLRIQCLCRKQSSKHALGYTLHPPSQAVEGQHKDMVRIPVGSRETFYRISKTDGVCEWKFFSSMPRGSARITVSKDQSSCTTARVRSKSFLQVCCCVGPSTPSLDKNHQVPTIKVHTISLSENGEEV
- assay_comment: ^3H‐cAMP accumulation, CHO‐α1A cells
- Format: cell-based
- test_parameters: CHO‐α1A cells; % of 10 µM forskolin response
Catalogue of cAMP accumulation % forskolin values
metric: cAMP accumulation % forskolin

> print(dat)
                                   compound  observed.measurement
1  O=C1CC2(CCCC2)CC(=O)N1CCCCN1CCN(c2ncccn2)CC1 [Buspirone]           3.3 ± 0.06%
2       Clc1cccc(Cl)c1N=C1NCCN1 [Clonidine]           33.8 ± 3.2%
3   CN[C@@H](C)[C@H](O)c1ccccc1 [Ephedrine]            7.8 ± 1.3%
4  CS(=O)(=O)Nc1c(O)ccc2c1CCCC2C1=NCCN1 (stereo not drawn) [A61603]          142.7 ± 8.7%
5  CNC[C@H](O)c1cccc(O)c1 [R‐phenylephrine]          132.5 ± 4.5%
6  c1ccc(C2CC2)c(OCC2=NCCN2)c1 [Cirazoline]          108.9 ± 6.5%
